Attribute: IC50 at 5 days
Test: in vitro
Details: mouse

These recorded examples may help you get a feel for the data.
> print(dat)
                                smiles.text  endpoint.value
1  [N-]=[N+]=NCCOCCOc1ccc(-c2oc3ccccc3c(=O)c2OCc2ccccc2)cc1           51 µM
2  O=c1cc(-c2ccc(OCCOCCn3cc(CN(Cc4ccccc4)Cc4cn(CCOCCOc5ccc(-c6cc(=O)c7ccccc7o6)cc5)nn4)nn3)cc2)oc2ccccc12        > 100 µM
3  O=c1cc(-c2ccccc2)oc2cc(OCCOCc3cn(CCOCCOc4ccc(-c5oc6ccccc6c(=O)c5OCc5ccccc5)cc4)nn3)ccc12        > 100 µM

Continue with the next compound.
Q: I am curious: what IC50 at 5 days value has been reported for COC(=O)c1cccc(COc2c(-c3ccc(OCCOCCn4cc(CCCCOc5ccc(-c6cc(=O)c7cc(C)ccc7o6)cc5)nn4)cc3)oc3ccccc3c2=O)c1 ?
A: > 100 µM

====

Test: in vitro
Conditions: mouse
reported-metric: IC50 at 5 days

These recorded examples may help you get a feel for the data.
> print(dat)
                                smiles.text  reported.metric  endpoint.value
1  Cc1ccc2oc(-c3ccc(OCCCCc4cn(CCOCCOCCOc5ccc6c(=O)cc(-c7ccccc7)oc6c5)nn4)cc3)cc(=O)c2c1   IC50 at 5 days        > 100 µM
2  O=c1[nH]c(-c2ccc(OCCCc3cn(CCOCCOCCOc4ccc(-c5cc(=O)c6ccccc6o5)cc4)nn3)cc2)nc2ccccc12   IC50 at 5 days       < 12.1 µM
3     C#CCOCCOc1ccc2c(=O)cc(-c3ccccc3)oc2c1   IC50 at 5 days         32.2 µM
4  COC(=O)c1cccc(COc2c(-c3ccc(OCCOCCOCCn4cc(COCCOc5ccc6c(=O)cc(-c7ccccc7)oc6c5)nn4)cc3)oc3ccccc3c2=O)c1   IC50 at 5 days        > 100 µM

Continue with the next molecule.
Q: I am curious: what IC50 at 5 days value has been reported for O=c1cc(-c2ccc(OCCOCCOCCn3cc(CN(Cc4ccccc4)Cc4cn(CCOCCOCCOc5ccc(-c6cc(=O)c7ccccc7o6)cc5)nn4)nn3)cc2)oc2ccccc12 ?
A: > 100 µM

====

Target: BCRP (Homo sapiens, UniProt Q9UNQ0)
Sequence (Q9UNQ0 whole entry): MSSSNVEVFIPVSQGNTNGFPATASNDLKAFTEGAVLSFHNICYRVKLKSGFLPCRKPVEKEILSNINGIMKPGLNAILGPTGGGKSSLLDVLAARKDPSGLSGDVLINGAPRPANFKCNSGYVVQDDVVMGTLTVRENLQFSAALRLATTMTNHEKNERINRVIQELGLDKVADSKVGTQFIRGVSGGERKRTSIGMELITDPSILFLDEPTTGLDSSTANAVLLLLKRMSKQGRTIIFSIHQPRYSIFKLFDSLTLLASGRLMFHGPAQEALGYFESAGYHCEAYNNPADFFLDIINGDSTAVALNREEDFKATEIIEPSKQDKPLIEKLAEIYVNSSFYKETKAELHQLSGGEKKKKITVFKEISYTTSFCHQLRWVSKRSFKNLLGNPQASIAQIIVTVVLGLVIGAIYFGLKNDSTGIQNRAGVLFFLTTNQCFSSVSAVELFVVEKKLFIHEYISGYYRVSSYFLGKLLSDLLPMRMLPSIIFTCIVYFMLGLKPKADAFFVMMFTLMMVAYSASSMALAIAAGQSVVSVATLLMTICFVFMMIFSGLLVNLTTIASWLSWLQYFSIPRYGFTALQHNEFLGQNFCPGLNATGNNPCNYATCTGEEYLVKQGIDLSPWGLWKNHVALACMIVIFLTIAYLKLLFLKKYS
Test: Reversal of BCRP-mediated topotecan resistance in MCF7-MX100 cells (cell proliferation assay)
Conditions: (IC50 towards L929 or Raw264.7)/(EC50 for reversing drug resistance)
Attribute: Topotecan resistance of MCF7-MX100 Therapeutic index

These recorded examples may help you get a feel for the data.
> print(dat)
                                smiles.text  endpoint.value
1  COCOc1cc(O)c2c(=O)cc(-c3ccc(OCCCc4cn(CCOCCOc5ccc(-c6cc(=O)c7ccccc7o6)cc5)nn4)cc3)oc2c1         >1960.8
2  COC(=O)c1cccc(COc2c(-c3ccc(OCCOCCOCCn4cc(CCCCOc5ccc(-c6cc(=O)c7cc(C)ccc7o6)cc5)nn4)cc3)oc3ccccc3c2=O)c1       >111111.1

Continue with the next compound.
Q: I am curious: what Topotecan resistance of MCF7-MX100 Therapeutic index value has been reported for COC(=O)c1cccc(COc2c(-c3ccc(OCCOCCOCCn4cc(CCCCOc5ccc6c(=O)cc(-c7ccccc7)oc6c5)nn4)cc3)oc3ccccc3c2=O)c1 ?
A: >71428.6
